- test-description: Clinical PK of HDM201 in patients (non-compartmental and population PK), study HDM201X2101
- Type: in vivo, human
- experimental-conditions: human, plasma, oral, 350 mg, Regimen 1A 350 mg, Day 1 single dose, solid malignancies, N = 5; read-out: AUClast (0-24 h), Geo Mean (% CV)
measurement-label: AUC(0-t) (ng·h/mL)
Give the number; ng·h/mL is assumed, so skip it.

Ask: Param item = "COc1ncc(-c2nc3c(n2C(C)C)[C@H](c2ccc(Cl)cc2)N(c2cc(Cl)cn(C)c2=O)C3=O)c(OC)n1" ; retrieve measured AUC(0-t).
Reply: 50500

====

- test-description: Clinical PK of HDM201 in patients (non-compartmental and population PK), study HDM201X2101
- Type: in vivo, human
- experimental-conditions: human, plasma, oral, 250 mg, Regimen 1A 250 mg, Day 1 single dose, solid malignancies, N = 5; read-out: T½, Geo Mean (% CV) (converted)
measurement-label: half-life (h)
Give the number; h is assumed, so skip it.

Ask: Param item = COc1ncc(-c2nc3c(n2C(C)C)[C@H](c2ccc(Cl)cc2)N(c2cc(Cl)cn(C)c2=O)C3=O)c(OC)n1 [HDM201] ; retrieve measured half-life.
Reply: 15.3

====

- test-description: Clinical PK of HDM201 in patients (non-compartmental and population PK), study HDM201X2101
- Assay type: in vivo, human
- experimental-conditions: human, plasma, oral, 200 mg, Regimen 1A 200 mg, Day 1 single dose, solid malignancies, N = 5; read-out: Tmax, median
measurement-label: Tmax
Write the figure, then the unit, nothing else.

Ask: Param item = COc1ncc(-c2nc3c(n2C(C)C)[C@H](c2ccc(Cl)cc2)N(c2cc(Cl)cn(C)c2=O)C3=O)c(OC)n1 [HDM201] ; retrieve measured Tmax.
Reply: 3 h

====

- test-description: Clinical PK of HDM201 in patients (non-compartmental and population PK), study HDM201X2101
- Format: in vivo, human
- experimental-conditions: human, plasma, oral, 7.5 mg, Regimen 2A 7.5 mg, Day 1 single dose, solid malignancies, N = 4; read-out: Cmax, Geo Mean (% CV)
measurement-label: Cmax

Ask: Param item = "COc1ncc(-c2nc3c(n2C(C)C)[C@H](c2ccc(Cl)cc2)N(c2cc(Cl)cn(C)c2=O)C3=O)c(OC)n1" ; retrieve measured Cmax.
Reply: 39 ng/mL

====

- test-description: Clinical PK of HDM201 in patients (non-compartmental and population PK), study HDM201X2101
- Format: in vivo, human
- experimental-conditions: human, plasma, oral, 15 mg, Regimen 2A 15 mg daily, Day 14, solid malignancies, N = 4; read-out: Tmax, median
measurement-label: Tmax (h)
Give the number; h is assumed, so skip it.

Ask: Param item = "COc1ncc(-c2nc3c(n2C(C)C)[C@H](c2ccc(Cl)cc2)N(c2cc(Cl)cn(C)c2=O)C3=O)c(OC)n1" ; retrieve measured Tmax.
Reply: 3

====

- test-description: Clinical PK of HDM201 in patients (non-compartmental and population PK), study HDM201X2101
- Format: in vivo, human
- experimental-conditions: human, plasma, oral, 20 mg, Regimen 2A 20 mg daily, Day 14, solid malignancies, N = 4; read-out: Tmax, median
measurement-label: Tmax

Ask: Param item = COc1ncc(-c2nc3c(n2C(C)C)[C@H](c2ccc(Cl)cc2)N(c2cc(Cl)cn(C)c2=O)C3=O)c(OC)n1 [HDM201] ; retrieve measured Tmax.
Reply: 4 h

====

- test-description: Clinical PK of HDM201 in patients (non-compartmental and population PK), study HDM201X2101
- Format: in vivo, human
- experimental-conditions: human, plasma, oral, 100 mg, Regimen 1A 100 mg, Day 1 single dose, solid malignancies, N = 4; read-out: Tmax, median
measurement-label: Tmax (h)
Give the number; h is assumed, so skip it.

Ask: Param item = COc1ncc(-c2nc3c(n2C(C)C)[C@H](c2ccc(Cl)cc2)N(c2cc(Cl)cn(C)c2=O)C3=O)c(OC)n1 [HDM201] ; retrieve measured Tmax.
Reply: 3.5

====

- test-description: Clinical PK of HDM201 in patients (non-compartmental and population PK), study HDM201X2101
- Format: in vivo, human
- experimental-conditions: human, plasma, oral, 4 mg, Regimen 2A 4 mg, Day 1 single dose, solid malignancies, N = 4; read-out: AUClast (0-24 h), Geo Mean (% CV)
measurement-label: AUC(0-t)
Write the figure, then the unit, nothing else.

Ask: Param item = "COc1ncc(-c2nc3c(n2C(C)C)[C@H](c2ccc(Cl)cc2)N(c2cc(Cl)cn(C)c2=O)C3=O)c(OC)n1" ; retrieve measured AUC(0-t).
Reply: 193 ng·h/mL

====

- test-description: Clinical PK of HDM201 in patients (non-compartmental and population PK), study HDM201X2101
- Format: in vivo, human
- experimental-conditions: human, plasma, oral, 2 mg, Regimen 2A 2 mg, Day 1 single dose, solid malignancies, N = 2; read-out: Cmax, Geo Mean (% CV)
measurement-label: Cmax (ng/mL)
Give the number; ng/mL is assumed, so skip it.

Ask: Param item = COc1ncc(-c2nc3c(n2C(C)C)[C@H](c2ccc(Cl)cc2)N(c2cc(Cl)cn(C)c2=O)C3=O)c(OC)n1 [HDM201] ; retrieve measured Cmax.
Reply: 12

====

- test-description: Clinical PK of HDM201 in patients (non-compartmental and population PK), study HDM201X2101
- Format: in vivo, human
- experimental-conditions: human, plasma, oral, 350 mg, Regimen 1A 350 mg, Day 1 single dose, solid malignancies, N = 5; read-out: Tmax, median
measurement-label: Tmax (h)
Give the number; h is assumed, so skip it.

Ask: Param item = COc1ncc(-c2nc3c(n2C(C)C)[C@H](c2ccc(Cl)cc2)N(c2cc(Cl)cn(C)c2=O)C3=O)c(OC)n1 [HDM201] ; retrieve measured Tmax.
Reply: 4.1

====

- test-description: Clinical PK of HDM201 in patients (non-compartmental and population PK), study HDM201X2101
- Assay type: in vivo, human
- experimental-conditions: human, plasma, oral, 7.5 mg, Regimen 2A 7.5 mg daily, Day 14, solid malignancies, N = 2; read-out: Tmax, median
measurement-label: Tmax (h)
Give the number; h is assumed, so skip it.

Ask: Param item = COc1ncc(-c2nc3c(n2C(C)C)[C@H](c2ccc(Cl)cc2)N(c2cc(Cl)cn(C)c2=O)C3=O)c(OC)n1 [HDM201] ; retrieve measured Tmax.
Reply: 3.9

====

- test-description: Clinical PK of HDM201 in patients (non-compartmental and population PK), study HDM201X2101
- Format: in vivo, human
- experimental-conditions: human, plasma, oral, 2 mg, Regimen 2A 2 mg, Day 1 single dose, solid malignancies, N = 2; read-out: Tmax, median
measurement-label: Tmax (h)
Give the number; h is assumed, so skip it.

Ask: Param item = COc1ncc(-c2nc3c(n2C(C)C)[C@H](c2ccc(Cl)cc2)N(c2cc(Cl)cn(C)c2=O)C3=O)c(OC)n1 [HDM201] ; retrieve measured Tmax.
Reply: 3.4

====

- test-description: Clinical PK of HDM201 in patients (non-compartmental and population PK), study HDM201X2101
- Format: in vivo, human
- experimental-conditions: human, plasma, oral, 4 mg, Regimen 2A 4 mg, Day 1 single dose, solid malignancies, N = 4; read-out: Tmax, median
measurement-label: Tmax (h)
Give the number; h is assumed, so skip it.

Ask: Param item = "COc1ncc(-c2nc3c(n2C(C)C)[C@H](c2ccc(Cl)cc2)N(c2cc(Cl)cn(C)c2=O)C3=O)c(OC)n1" ; retrieve measured Tmax.
Reply: 2.5

====

- test-description: Clinical PK of HDM201 in patients (non-compartmental and population PK), study HDM201X2101
- Assay type: in vivo, human
- experimental-conditions: human, plasma, oral, after Day 1 single dose (50-350 mg); read-out: Median half-life
measurement-label: half-life

Ask: Param item = COc1ncc(-c2nc3c(n2C(C)C)[C@H](c2ccc(Cl)cc2)N(c2cc(Cl)cn(C)c2=O)C3=O)c(OC)n1 [HDM201] ; retrieve measured half-life.
Reply: 13.7 to 23.1 h

====

- test-description: Clinical PK of HDM201 in patients (non-compartmental and population PK), study HDM201X2101
- Assay type: in vivo, human
- experimental-conditions: human, plasma, oral, 250 mg, Regimen 1A 250 mg, Day 1 single dose, solid malignancies, N = 6; read-out: AUClast (0-24 h), Geo Mean (% CV)
measurement-label: AUC(0-t) (ng·h/mL)
Give the number; ng·h/mL is assumed, so skip it.

Ask: Param item = "COc1ncc(-c2nc3c(n2C(C)C)[C@H](c2ccc(Cl)cc2)N(c2cc(Cl)cn(C)c2=O)C3=O)c(OC)n1" ; retrieve measured AUC(0-t).
Reply: 23900
